Ref: patent US20210324028A1

STUDY_TARGET: T1, human IL-15Rα (human, UniProt Q13261 31-205, limits assumed)
T1 construct: also called hIL-15Rα; IL-15 receptor alpha
T1 sequence (Q13261 31-205 limits assumed): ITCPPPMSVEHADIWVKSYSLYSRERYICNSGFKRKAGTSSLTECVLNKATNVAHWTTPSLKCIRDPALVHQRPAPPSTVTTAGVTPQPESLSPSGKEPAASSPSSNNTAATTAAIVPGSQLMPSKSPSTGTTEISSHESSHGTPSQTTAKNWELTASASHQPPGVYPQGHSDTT
PROTOCOL_SUMMARY: SPR, steady state
QUANTITY_NAME: Kd (nM)

[
  {
    "BINDER": "hIL-15 V49R/K11I (ligand) NWVNVISDLKIIEDLIQSMHIDATLYTESDVHPSCKVTAMKCFLLELQRISLESGDASIHDTVENLIILANNSLSSNGNVTESGCKECEELEEKNIKEFLQSFVHIVQMFINTGGGGSGHHHHHHHHGGGLNDIFEAQKIEWHE",
    "READOUT_UNIT": "nM",
    "Kd": 95.8
  },
  {
    "BINDER": "hIL-15 V49R/S29N (ligand) NWVNVISDLKKIEDLIQSMHIDATLYTENDVHPSCKVTAMKCFLLELQRISLESGDASIHDTVENLIILANNSLSSNGNVTESGCKECEELEEKNIKEFLQSFVHIVQMFINTGGGGSGHHHHHHHHGGGLNDIFEAQKIEWHE",
    "READOUT_UNIT": "nM",
    "Kd": 154
  },
  {
    "BINDER": "hIL-15 V49R/D30S (ligand) NWVNVISDLKKIEDLIQSMHIDATLYTESSVHPSCKVTAMKCFLLELQRISLESGDASIHDTVENLIILANNSLSSNGNVTESGCKECEELEEKNIKEFLQSFVHIVQMFINTGGGGSGHHHHHHHHGGGLNDIFEAQKIEWHE",
    "READOUT_UNIT": "nM",
    "Kd": 146
  }
]

I = hIL-15 V49R/K10S (ligand) NWVNVISDLSKIEDLIQSMHIDATLYTESDVHPSCKVTAMKCFLLELQRISLESGDASIHDTVENLIILANNSLSSNGNVTESGCKECEELEEKNIKEFLQSFVHIVQMFINTGGGGSGHHHHHHHHGGGLNDIFEAQKIEWHE
II = hIL-15 V49R/E64N (ligand) NWVNVISDLKKIEDLIQSMHIDATLYTESDVHPSCKVTAMKCFLLELQRISLESGDASIHDTVNNLIILANNSLSSNGNVTESGCKECEELEEKNIKEFLQSFVHIVQMFINTGGGGSGHHHHHHHHGGGLNDIFEAQKIEWHE
III = hIL-15 V49R/L69N (ligand) NWVNVISDLKKIEDLIQSMHIDATLYTESDVHPSCKVTAMKCFLLELQRISLESGDASIHDTVENLIINANNSLSSNGNVTESGCKECEELEEKNIKEFLQSFVHIVQMFINTGGGGSGHHHHHHHHGGGLNDIFEAQKIEWHE
Q. Would you mind ranking these binders by ascending Kd? As an answer, provide the labels arranged in the order called for.
A. III, II, I
(III: 44 nM, II: 115 nM, I: 195 nM)
